Data origin, for the record: PubChem BioAssay AID1159580

- assay: chemical genetic growth profiling, strain panel (AID 1159580);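 further: tested at 20 µM; growth read once vehicle control cultures reached saturation at 30 °C; lower values mean less growth of the strain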
- experimentalConditions: S. cerevisiae deletion strains, growth OD, locus YLR262C, strain YPT6 (second series)
The whole screen tested about 5,500 compounds, of which about 2,000 (36%) were called active. About 18% were inconclusive and are not listed. No stated cut-off is given here; in the data, active means normalized growth mostly below about 0.91 (no sharp cut-off); inconclusive means no clear call, values can overlap the other calls; inactive means mostly above about 0.92. The list shows a part of the results.
Outcomes: TRUE = active, FALSE = inactive

compound: CC(C)(Oc1ccc(CCNC(=O)c2ccc(Cl)cc2)cc1)C(=O)O
classification: FALSE
--
compound: CC1OC(=O)C(C(C)C)NC(=O)C(C(C)C)OC(=O)C(C(C)C)NC(=O)C(C)OC(=O)C(C(C)C)NC(=O)C(C(C)C)OC(=O)C(C(C)C)NC(=O)C(C)OC(=O)C(C(C)C)NC(=O)C(C(C)C)OC(=O)C(C(C)C)NC1=O (centres undefined)
classification: TRUE
--
compound: C[C@@H]1CC[C@H]2[C@@H](C)C(=O)O[C@@H]3O[C@@]4(C)CC[C@@H]1[C@]32OO4
classification: TRUE
--
compound: C[C@@H]1C(=O)O[C@H]2[C@H]1CC[C@@]1(C)C=CC(=O)[C@@]3(C)O[C@@]213
classification: FALSE

###

- assay: chemical genetic growth profiling, strain panel (AID 1159580);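 further: tested at 20 µM; growth read once vehicle control cultures reached saturation at 30 °C; lower values mean less growth of the strain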
- experimentalConditions: S. cerevisiae deletion strains, growth OD, locus YJL166W, strain qcr8
Among all 5,500 compounds or so, about 2,000 (36%) were called active. Not shown: some 18% with an inconclusive outcome. Rule as the data show it: active = normalized growth mostly below about 0.91 (no sharp cut-off); inconclusive = no clear call, values can overlap the other calls; inactive = mostly above about 0.92. Some of the results follow. Where a SMILES comes first, the peptide text is derived from it. Bridges are numbered along the chain shown (N, C = ends). [ ]: non-standard residue; d: D form. The star is where a group is joined. ξ: configuration not given here. ξDab(CH2SO3H) = NC(CCNCS(=O)(=O)O)C(=O)O; Heptanoyl(6-Me) = CC(C)CCCCC(=O)*; Dab = NCC[CH](N)C(=O)O
Outcomes: Y for active, N for inactive

compound: Cc1cc(O)cc(=O)o1
classification: N
//
compound: Nc1ccc(S(=O)(=O)c2ccc(N)cc2)cc1
classification: N
//
compound: CCC(C)C(=O)O[C@H]1[C@H](O)C2C(CN3CC(C)CCC3[C@@]2(C)O)C2C[C@]34O[C@]5(O)C(OC(=O)C(C)(O)CC)CC[C@@]3(C)C5C(OC(C)=O)[C@@H](OC(C)=O)C4[C@@]21O (some centres undefined)
classification: N
//
compound: O=C(CNC(=O)c1ccc(Cl)cc1)NO
classification: N
//
compound: O=C1C(O)=C(O)C(=O)C(O)=C1O
classification: N
//
compound: O=C(Nc1ccc(C(=O)O)c(O)c1)c1ccccc1
classification: N
//
compound: CC(C)=CCCC1(C)C=Cc2c(O)c3c(c(CC=C(C)C)c2O1)OC12C(=CCCC1C(C)(C)O[C@@]2(C/C=C(\C)C(=O)O)C(=O)O)C3=O (some centres undefined)
classification: Y
//
compound: COC(=O)C[C@H]1C(C)(C)C(=O)[C@@H]2CC3C4=CC(=O)O[C@@H](c5ccoc5)[C@]4(C)CCC3[C@@]1(C)C2=O (some centres undefined)
classification: N
//
compound: CCOc1ccc2nc3cc(N)ccc3c(N)c2c1
classification: Y
//
compound: NC12CC3CC(CC(C3)C1)C2
classification: N
//
compound: C/C=C(/C)C(=O)O[C@@H]1[C@H](OC(C)=O)[C@@]2(CO)C(CC1(C)C)C1=CCC3[C@@]4(C)CC[C@H](O[C@@H]5O[C@H](C(=O)O)[C@@H](O[C@@H]6O[C@H](CO)[C@@H](O)[C@H](O)[C@H]6O)[C@H](O)[C@H]5O[C@@H]5O[C@H](CO)[C@@H](O)[C@H](O)[C@H]5O)[C@](C)(CO)C4CC[C@@]3(C)[C@]1(C)C[C@H]2O (some centres undefined)
classification: N
//
compound: CC(C)=CCCC1(C)C=Cc2c(O)c3c(c(CC=C(C)C)c2O1)OC12C(=CC4CC1C(C)(C)OC2(C/C=C(/C)C(=O)O)C4=O)C3=O (centres undefined)
classification: Y
//
compound: NNC(=O)c1ccncc1
classification: N
//
compound: OC(CCN1CCCC1)(c1ccccc1)C1CCCCC1 (centres undefined)
classification: N
//
compound: CC(=O)O[C@H]1CC[C@@]2(C)C(CC[C@]3(C)C2CC=C2C4CC(C)(C)CC[C@]4(C)CC[C@]23C)C1(C)C (some centres undefined)
classification: N
//
compound: CC(CC(=O)C(O)C(C)(C)O)C1C(=O)CC2(C)C3=CCC4C(C)(C)C(OC5OCC(O)C(O)C5O)CCC45CC35C(O)CC12C (centres undefined)
classification: N
//
compound: COC(=O)Nc1nc2ccc(S(=O)c3ccccc3)cc2[nH]1 (centres undefined)
classification: N
//
compound: CNCc1ccccc1
classification: N
//
compound: C[C@H]1[C@H](C)CC[C@]2(CO)CC[C@]3(C)C(=CCC4[C@@]5(C)CC[C@H](O)C(C)(C)C5CC[C@]43C)[C@H]12 (some centres undefined)
classification: N
//
compound: COC(=O)Nc1nc2ccc(C(=O)c3ccccc3)cc2[nH]1
classification: Y
//
compound: CC1(C)CC[C@]2(C(=O)O)CC[C@]3(C)C(=CCC4[C@@]5(C)CC[C@H](O)[C@@](C)(CO)C5CC[C@]43C)C2C1 (some centres undefined)
classification: N
//
compound: Cc1cn([C@H]2C[C@H](N=[N+]=[N-])[C@@H](CO)O2)c(=O)[nH]c1=O
classification: N
//
compound: COc1cc(N)c(Cl)cc1C(=O)NC1CCN(Cc2ccccc2)CC1
classification: N
//
compound: NNc1nncc2ccccc12
classification: N
//
compound: CC(=O)O[C@@H]1CC[C@@]2(C)C(CC[C@]3(C)C2CC=C2C4CC(C)(C)CC[C@]4(C(=O)O)CC[C@]23C)C1(C)C (some centres undefined)
classification: N
//
compound: CCC(C)C1NC(=O)C(CCNCS(=O)(=O)O)NC(=O)C(NC(=O)C(CCNCS(=O)(=O)O)NC(=O)C(NC(=O)C(CCNCS(=O)(=O)O)NC(=O)CCCCC(C)C)C(C)O)CCNC(=O)C(C(C)O)NC(=O)C(CCNCS(=O)(=O)O)NC(=O)C(CCNCS(=O)(=O)O)NC(=O)C(C(C)CC)NC1=O (centres undefined) ({Heptanoyl(6-Me)}-[ξDab(CH2SO3H)]T[ξDab(CH2SO3H)][Dab][ξDab(CH2SO3H)]II[ξDab(CH2SO3H)][ξDab(CH2SO3H)]T; lactam 4-C; configuration not given here)
classification: N
//
compound: COc1ccc2[nH]cc(CCN)c2c1
classification: N
//
compound: N=C(N)c1ccc(OCCCCCOc2ccc(C(=N)N)cc2)cc1
classification: N
//
compound: Nc1c2ccccc2nc2ccccc12 (tested in a mixture with another compound)
classification: Y
//
compound: Nc1c2c(nc3ccccc13)CCCC2
classification: N
//
compound: Cc1cc(O)ccc1Cl
classification: N
//
compound: O=C1c2c(O)cccc2Cc2cccc(O)c21
classification: N
//
compound: OC(CCN1CCCCC1)(c1ccccc1)C1CC2C=CC1C2 (centres undefined)
classification: N
//
compound: CC(CC(=O)C1OC1(C)C)C1C(=O)CC2(C)C3=CCC4C(C)(C)C(OC5OCC(O)C(O)C5O)CCC45CC35C(O)CC12C (centres undefined)
classification: N
